- system_tested: panel of more than 300 wild-type and mutant kinases (313 kinase panel) (Homo sapiens)
- Sequence (O00141 1-431): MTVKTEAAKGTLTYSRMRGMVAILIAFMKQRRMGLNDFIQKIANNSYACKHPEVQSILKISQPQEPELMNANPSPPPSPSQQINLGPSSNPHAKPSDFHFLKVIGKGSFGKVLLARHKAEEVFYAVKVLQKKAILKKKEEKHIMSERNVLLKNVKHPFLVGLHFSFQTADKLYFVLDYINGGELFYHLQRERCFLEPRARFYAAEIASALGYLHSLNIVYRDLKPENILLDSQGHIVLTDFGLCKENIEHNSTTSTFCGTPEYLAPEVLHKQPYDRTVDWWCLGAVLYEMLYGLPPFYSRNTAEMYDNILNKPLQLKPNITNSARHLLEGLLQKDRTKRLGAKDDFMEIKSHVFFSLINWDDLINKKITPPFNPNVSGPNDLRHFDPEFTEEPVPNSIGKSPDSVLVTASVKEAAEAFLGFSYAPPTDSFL
- assay_protocol: Kinase profiling in a biochemical assay panel (mobility shift assays and ELISA), %-inhibition at 1 μM; selectivity entropy
- run_conditions: kinase SGK; 1 μM

compound | %-inhibition of SGK / %
N#CC[C@H](C1CCCC1)n1cc(-c2ncnc3[nH]ccc23)cn1 [ruxolitinib] | -2.44
O=S(=O)(c1cccc2cnccc12)N1CCCNCC1 [fasudil] | 2.82
CS(=O)(=O)CCNCc1ccc(-c2ccc3ncnc(Nc4ccc(OCc5cccc(F)c5)c(Cl)c4)c3c2)o1 [lapatinib] | 2.49
CCN(CC)CCNC(=O)c1c(C)[nH]c(/C=C2\C(=O)Nc3ccc(F)cc32)c1C [sunitinib] | 60
COc1cc(Nc2c(C#N)cnc3cc(OCCCN4CCN(C)CC4)c(OC)cc23)c(Cl)cc1Cl [bosutinib] | -5

---

- system_tested: panel of more than 300 wild-type and mutant kinases (313 kinase panel) (Homo sapiens, UniProt Q05513)
- assay_protocol: Kinase profiling in a biochemical assay panel (mobility shift assays and ELISA), %-inhibition at 1 μM; selectivity entropy
- run_conditions: kinase PKCζ; 1 μM
Recorded %-inhibition of PKCζ for the following compounds

mol_smiles | %-inhibition of PKCζ, %
CC(C)(C)c1nc(-c2cccc(NS(=O)(=O)c3c(F)cccc3F)c2F)c(-c2ccnc(N)n2)s1 | 5
Cc1cn(-c2cc(NC(=O)c3ccc(C)c(Nc4nccc(-c5cccnc5)n4)c3)cc(C(F)(F)F)c2)cn1 | 5.32
CS(=O)(=O)CCNCc1ccc(-c2ccc3ncnc(Nc4ccc(OCc5cccc(F)c5)c(Cl)c4)c3c2)o1 | 0
CO[C@H]1C[C@@H]2CC[C@@H](C)[C@@](O)(O2)C(=O)C(=O)N2CCCC[C@H]2C(=O)O[C@H]([C@H](C)C[C@@H]2CC[C@@H](OC(=O)C(C)(CO)CO)[C@H](OC)C2)CC(=O)[C@H](C)/C=C(\C)[C@@H](O)[C@@H](OC)C(=O)[C@H](C)C[C@H](C)/C=C/C=C/C=C/1C | 5
Cc1ccc(C(=O)Nc2ccc(CN3CCN(C)CC3)c(C(F)(F)F)c2)cc1C#Cc1cnc2cccnn12 | 14
COc1cc2c(Nc3ccc(Br)cc3F)ncnc2cc1OCC1CCN(C)CC1 | 1.3
Cc1ccc(Nc2nccc(N(C)c3ccc4c(C)n(C)nc4c3)n2)cc1S(N)(=O)=O | -0.674
CC(=O)Nc1cccc(-n2c(=O)n(C3CC3)c(=O)c3c(Nc4ccc(I)cc4F)n(C)c(=O)c(C)c32)c1 | 4.31
C[C@@H](Oc1cc(-c2cnn(C3CCNCC3)c2)cnc1N)c1c(Cl)ccc(F)c1Cl | 9
O=S(=O)(c1cccc2cnccc12)N1CCCNCC1 | 7.57

---

- system_tested: panel of more than 300 wild-type and mutant kinases (313 kinase panel) (Homo sapiens, UniProt P42684)
- assay_protocol: Kinase profiling in a biochemical assay panel (mobility shift assays and ELISA), %-inhibition at 1 μM; selectivity entropy
- run_conditions: kinase ARG; 1 μM compound
The threshold is inclusive: %-inhibition, ARG of exactly 10% counts as fulfilled; values below receive not fulfilled.

molecule | assigned_category
CNC(=O)c1cc(Oc2ccc(NC(=O)Nc3ccc(Cl)c(C(F)(F)F)c3)c(F)c2)ccn1 [regorafenib] | fulfilled
CO[C@H]1C[C@@H]2CC[C@@H](C)[C@@](O)(O2)C(=O)C(=O)N2CCCC[C@H]2C(=O)O[C@H]([C@H](C)C[C@@H]2CC[C@@H](OC(=O)C(C)(CO)CO)[C@H](OC)C2)CC(=O)[C@H](C)/C=C(\C)[C@@H](O)[C@@H](OC)C(=O)[C@H](C)C[C@H](C)/C=C/C=C/C=C/1C [temsirolimus] | not fulfilled
N#CC[C@H](C1CCCC1)n1cc(-c2ncnc3[nH]ccc23)cn1 [ruxolitinib] | not fulfilled
Cc1ccc(Nc2nccc(N(C)c3ccc4c(C)n(C)nc4c3)n2)cc1S(N)(=O)=O [pazopanib] | fulfilled
CS(=O)(=O)CCNCc1ccc(-c2ccc3ncnc(Nc4ccc(OCc5cccc(F)c5)c(Cl)c4)c3c2)o1 [lapatinib] | fulfilled
COc1cc2c(Nc3ccc(Br)cc3F)ncnc2cc1OCC1CCN(C)CC1 [vandetanib] | fulfilled

---

- system_tested: panel of more than 300 wild-type and mutant kinases (313 kinase panel) (Homo sapiens)
- assay_protocol: Kinase profiling in a biochemical assay panel (mobility shift assays and ELISA), %-inhibition at 1 μM; selectivity entropy
- run_conditions: kinase RAF1; 1 μM
quantity_name: %-inhibition of RAF1 (%)

compound | experimental_value
CS(=O)(=O)CCNCc1ccc(-c2ccc3ncnc(Nc4ccc(OCc5cccc(F)c5)c(Cl)c4)c3c2)o1 | 8
COc1cc2nccc(Oc3ccc(NC(=O)C4(C(=O)Nc5ccc(F)cc5)CC4)cc3)c2cc1OC [cabozantinib] | 48
Cc1ccc(Nc2nccc(N(C)c3ccc4c(C)n(C)nc4c3)n2)cc1S(N)(=O)=O | 85
CC(C)(C)c1nc(-c2cccc(NS(=O)(=O)c3c(F)cccc3F)c2F)c(-c2ccnc(N)n2)s1 | 99
CNC(=O)c1cc(Oc2ccc(NC(=O)Nc3ccc(Cl)c(C(F)(F)F)c3)c(F)c2)ccn1 | 96
C[C@@H](Oc1cc(-c2cnn(C3CCNCC3)c2)cnc1N)c1c(Cl)ccc(F)c1Cl | 11
COc1cc2c(Nc3ccc(Br)cc3F)ncnc2cc1OCC1CCN(C)CC1 | 41
Cc1ccc(C(=O)Nc2ccc(CN3CCN(C)CC3)c(C(F)(F)F)c2)cc1C#Cc1cnc2cccnn12 | 96

---

Recorded %-inhibition, AurC for the following compounds
- system_tested: panel of more than 300 wild-type and mutant kinases (313 kinase panel) (Homo sapiens, UniProt Q9UQB9)
- Sequence (Q9UQB9 whole entry, change not shown): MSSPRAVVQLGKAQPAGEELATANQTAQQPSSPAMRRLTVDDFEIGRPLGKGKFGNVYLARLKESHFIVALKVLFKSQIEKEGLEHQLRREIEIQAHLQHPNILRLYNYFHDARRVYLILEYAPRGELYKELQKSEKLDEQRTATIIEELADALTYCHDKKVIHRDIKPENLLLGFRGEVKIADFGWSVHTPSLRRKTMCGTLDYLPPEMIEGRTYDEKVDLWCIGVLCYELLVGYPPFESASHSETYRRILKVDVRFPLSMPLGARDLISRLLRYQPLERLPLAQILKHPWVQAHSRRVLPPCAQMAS
- assay_protocol: Kinase profiling in a biochemical assay panel (mobility shift assays and ELISA), %-inhibition at 1 μM; selectivity entropy
- run_conditions: kinase AurC; 1 μM compound

mol_smiles | %-inhibition, AurC
CCN(CC)CCNC(=O)c1c(C)[nH]c(/C=C2\C(=O)Nc3ccc(F)cc32)c1C | 82%
O=S(=O)(c1cccc2cnccc12)N1CCCNCC1 | -0.164%
CC(C)(C)c1nc(-c2cccc(NS(=O)(=O)c3c(F)cccc3F)c2F)c(-c2ccnc(N)n2)s1 | 23%
CO[C@H]1C[C@@H]2CC[C@@H](C)[C@@](O)(O2)C(=O)C(=O)N2CCCC[C@H]2C(=O)O[C@H]([C@H](C)C[C@@H]2CC[C@@H](OC(=O)C(C)(CO)CO)[C@H](OC)C2)CC(=O)[C@H](C)/C=C(\C)[C@@H](O)[C@@H](OC)C(=O)[C@H](C)C[C@H](C)/C=C/C=C/C=C/1C | 0.194%
Cc1ccc(C(=O)Nc2ccc(CN3CCN(C)CC3)c(C(F)(F)F)c2)cc1C#Cc1cnc2cccnn12 | 19%
Cc1ccc(Nc2nccc(N(C)c3ccc4c(C)n(C)nc4c3)n2)cc1S(N)(=O)=O | 58%

---

- system_tested: panel of more than 300 wild-type and mutant kinases (313 kinase panel) (Homo sapiens, UniProt P49840)
- assay_protocol: Kinase profiling in a biochemical assay panel (mobility shift assays and ELISA), %-inhibition at 1 μM; selectivity entropy
- run_conditions: kinase GSK3α; compound at 1 μM
Recorded %-inhibition of GSK3α for the following molecules

mol_smiles | %-inhibition of GSK3α, %
CO[C@H]1C[C@@H]2CC[C@@H](C)[C@@](O)(O2)C(=O)C(=O)N2CCCC[C@H]2C(=O)O[C@H]([C@H](C)C[C@@H]2CC[C@@H](OC(=O)C(C)(CO)CO)[C@H](OC)C2)CC(=O)[C@H](C)/C=C(\C)[C@@H](O)[C@@H](OC)C(=O)[C@H](C)C[C@H](C)/C=C/C=C/C=C/1C | -14
CCCS(=O)(=O)Nc1ccc(F)c(C(=O)c2c[nH]c3ncc(-c4ccc(Cl)cc4)cc23)c1F | 25
C[C@@H](Oc1cc(-c2cnn(C3CCNCC3)c2)cnc1N)c1c(Cl)ccc(F)c1Cl | -2.56

---

- system_tested: panel of more than 300 wild-type and mutant kinases (313 kinase panel) (Homo sapiens, UniProt P78368)
- assay_protocol: Kinase profiling in a biochemical assay panel (mobility shift assays and ELISA), %-inhibition at 1 μM; selectivity entropy
- run_conditions: kinase CK1γ2; 1 μM compound
Recorded %-inhibition, CK1γ2 for the following compounds
quantity_name: %-inhibition, CK1γ2 (%)

compound | quantity_name | experimental_value
COc1cc2nccc(Oc3ccc(NC(=O)C4(C(=O)Nc5ccc(F)cc5)CC4)cc3)c2cc1OC [cabozantinib] | %-inhibition, CK1γ2 | 0.731
N#CC[C@H](C1CCCC1)n1cc(-c2ncnc3[nH]ccc23)cn1 | %-inhibition, CK1γ2 | -0.393
CCCS(=O)(=O)Nc1ccc(F)c(C(=O)c2c[nH]c3ncc(-c4ccc(Cl)cc4)cc23)c1F | %-inhibition, CK1γ2 | 0.506
Cc1ccc(C(=O)Nc2ccc(CN3CCN(C)CC3)c(C(F)(F)F)c2)cc1C#Cc1cnc2cccnn12 | %-inhibition, CK1γ2 | 0.169

Hello, the source for this data is paper PMC3961306, in case you need it.
